Test Target: 5-hydroxytryptamine receptor 1D (Homo sapiens) (UniProt P28221)
Sequence (P28221 whole entry): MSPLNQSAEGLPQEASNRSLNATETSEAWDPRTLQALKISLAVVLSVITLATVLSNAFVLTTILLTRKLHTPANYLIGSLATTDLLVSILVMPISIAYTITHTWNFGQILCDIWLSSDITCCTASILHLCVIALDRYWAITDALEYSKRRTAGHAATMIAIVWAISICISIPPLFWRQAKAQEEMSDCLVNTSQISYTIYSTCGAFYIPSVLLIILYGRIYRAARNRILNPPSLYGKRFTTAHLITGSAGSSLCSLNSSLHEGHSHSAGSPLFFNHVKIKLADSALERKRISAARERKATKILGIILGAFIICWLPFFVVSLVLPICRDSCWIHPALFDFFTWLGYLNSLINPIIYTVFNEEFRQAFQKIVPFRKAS
Experiment Summary: Compound was measured for its binding affinity at 5-hydroxytryptamine 1D receptor at a concentration of 10 uM using [3H]5-HT as radioligand
Would you kindly list inhibition for each of these molecules?
Return type: number; implicit unit %.

Ask | Provide inhibition, recorded with 5-hydroxytryptamine receptor 1D (Homo sapiens) (UniProt P28221), of O=C(c1cccc(CN2CCc3c([nH]c4ccccc34)C2)c1)N1CCc2ccccc21
Reply | 86.1

Ask | Provide inhibition, recorded with 5-hydroxytryptamine receptor 1D (Homo sapiens) (UniProt P28221), of O=C(c1cccc(CN2CCc3c([nH]c4ccccc34)C2)c1)N1CCCCC1
Reply | 74.7

Ask | Provide inhibition, recorded with 5-hydroxytryptamine receptor 1D (Homo sapiens) (UniProt P28221), of O=C(c1cccc(CN2CCN3c4ccccc4OCC3C2)c1)N1CCc2ccccc21 (centres undefined)
Reply | 58.9

Ask | Provide inhibition, recorded with 5-hydroxytryptamine receptor 1D (Homo sapiens) (UniProt P28221), of O=C(c1cccc(CN2CCN3c4ccccc4OCC3C2)c1)N1CCCCC1 (centres undefined)
Reply | 63.8

----------
Test Target: 5-hydroxytryptamine receptor 2C (Homo sapiens) (UniProt P28335)
Sequence (P28335 whole entry): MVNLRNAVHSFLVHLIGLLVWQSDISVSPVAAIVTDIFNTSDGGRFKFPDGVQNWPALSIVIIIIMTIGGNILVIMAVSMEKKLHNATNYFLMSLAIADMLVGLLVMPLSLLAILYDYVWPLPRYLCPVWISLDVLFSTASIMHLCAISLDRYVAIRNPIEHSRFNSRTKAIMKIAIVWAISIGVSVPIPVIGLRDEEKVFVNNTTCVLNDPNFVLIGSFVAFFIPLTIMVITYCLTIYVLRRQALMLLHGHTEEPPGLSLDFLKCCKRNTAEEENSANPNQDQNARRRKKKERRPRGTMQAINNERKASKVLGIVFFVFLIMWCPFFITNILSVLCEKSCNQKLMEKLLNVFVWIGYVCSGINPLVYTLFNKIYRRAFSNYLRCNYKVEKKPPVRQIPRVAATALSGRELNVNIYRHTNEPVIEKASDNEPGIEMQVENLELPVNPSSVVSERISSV
Experiment Summary: Compound was measured for its binding affinity at 5-hydroxytryptamine 1C receptor at a concentration of 100 nM using [3H]mesulergine as radioligand
Test Readout: inhibition (%)
Return type: number; implicit unit %.

Ask | Please indicate inhibition recorded for O=C(c1cccc(CN2CCc3c([nH]c4ccccc34)C2)c1)N1CCCCC1
Reply | 5.5

Ask | Please indicate inhibition recorded for O=C(c1cccc(CN2CCN3c4ccccc4OCC3C2)c1)N1CCCCC1 (centres undefined)
Reply | 5.6

Ask | Please indicate inhibition recorded for O=C(c1cccc(CN2CCc3c([nH]c4ccccc34)C2)c1)N1CCc2ccccc21
Reply | 8.7

Ask | Please indicate inhibition recorded for O=C(c1cccc(CN2CCN3c4ccccc4OCC3C2)c1)N1CCc2ccccc21 (centres undefined)
Reply | -2.8

----------
Target or system UniProt:P14416; recorded quantity Ki.
Sequence (P14416 whole entry): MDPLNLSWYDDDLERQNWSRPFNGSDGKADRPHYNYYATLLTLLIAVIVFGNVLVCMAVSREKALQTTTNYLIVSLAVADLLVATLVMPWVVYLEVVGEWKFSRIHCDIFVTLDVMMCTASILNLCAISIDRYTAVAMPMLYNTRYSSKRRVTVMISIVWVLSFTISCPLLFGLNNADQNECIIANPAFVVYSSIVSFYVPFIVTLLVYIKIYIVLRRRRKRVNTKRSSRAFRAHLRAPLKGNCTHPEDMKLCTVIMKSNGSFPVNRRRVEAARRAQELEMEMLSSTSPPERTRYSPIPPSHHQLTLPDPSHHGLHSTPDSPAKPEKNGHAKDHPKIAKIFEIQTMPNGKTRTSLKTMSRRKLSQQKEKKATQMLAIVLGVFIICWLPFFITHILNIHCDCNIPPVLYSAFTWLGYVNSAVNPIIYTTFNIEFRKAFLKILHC

Ask | Please indicate Ki recorded for O=C(c1cccc(CN2CCN3c4ccccc4OCC3C2)c1)N1CCc2ccccc21 (centres undefined)
Reply | > 1000 nM

Ask | Please indicate Ki recorded for O=C(c1cccc(CN2CCN3c4ccccc4OCC3C2)c1)N1CCCCC1 (centres undefined)
Reply | > 1000 nM

Ask | Please indicate Ki recorded for O=C(c1cccc(CN2CCc3c([nH]c4ccccc34)C2)c1)N1CCCCC1
Reply | 374 nM

Ask | Please indicate Ki recorded for O=C(c1cccc(CN2CCc3c([nH]c4ccccc34)C2)c1)N1CCc2ccccc21
Reply | > 1000 nM

----------
Would you kindly list inhibition for each of these compounds?
Test Target: D(3) dopamine receptor (Homo sapiens, UniProt P35462)
Sequence (P35462 whole entry): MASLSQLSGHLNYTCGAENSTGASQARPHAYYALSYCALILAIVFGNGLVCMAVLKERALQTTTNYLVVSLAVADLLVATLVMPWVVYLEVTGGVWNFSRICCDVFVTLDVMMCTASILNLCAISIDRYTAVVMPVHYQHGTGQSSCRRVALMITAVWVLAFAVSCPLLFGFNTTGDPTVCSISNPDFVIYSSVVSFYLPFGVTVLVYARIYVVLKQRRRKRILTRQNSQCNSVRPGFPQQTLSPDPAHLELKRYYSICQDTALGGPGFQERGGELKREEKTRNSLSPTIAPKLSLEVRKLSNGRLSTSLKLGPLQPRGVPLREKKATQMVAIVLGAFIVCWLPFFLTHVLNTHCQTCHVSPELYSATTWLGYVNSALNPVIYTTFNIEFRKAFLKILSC
Experiment Summary: Compound was measured […] for its inhibition of Dopamine receptor D3 at a concentration of 100 nM
Return type: number; implicit unit %.

Ask | Provide inhibition, recorded with D(3) dopamine receptor (Homo sapiens, UniProt P35462), of O=C(c1cccc(CN2CCc3c([nH]c4ccccc34)C2)c1)N1CCCCC1
Reply | 27

Ask | Provide inhibition, recorded with D(3) dopamine receptor (Homo sapiens, UniProt P35462), of O=C(c1cccc(CN2CCc3c([nH]c4ccccc34)C2)c1)N1CCc2ccccc21
Reply | 56

Ask | Provide inhibition, recorded with D(3) dopamine receptor (Homo sapiens, UniProt P35462), of O=C(c1cccc(CN2CCN3c4ccccc4OCC3C2)c1)N1CCc2ccccc21 (centres undefined)
Reply | 54

Ask | Provide inhibition, recorded with D(3) dopamine receptor (Homo sapiens, UniProt P35462), of O=C(c1cccc(CN2CCN3c4ccccc4OCC3C2)c1)N1CCCCC1 (centres undefined)
Reply | 64
